Listing of entries alongside the reported IC50.
- Test system: MX-1 (human breast carcinoma) cells
- test: In vitro growth inhibition (cytotoxicity, CellTiter Blue Cell Viability Assay)
- Format: cell-based
- applied.conditions: cells exposed 72 hr
metric.name: IC50 (µM)

{"compound": "CCCCC(=O)O[C@@H](C(=O)O[C@H]1C[C@@]2(O)[C@@H](OC(=O)c3ccccc3)C3[C@](C)(C(=O)[C@H](O)C(=C1C)C2(C)C)[C@@H](O)C[C@H]1OC[C@@]31OC(C)=O)[C@@H](NC(=O)OC(C)(C)C)c1ccccc1 (some centres unmarked)", "units.of.measure": "µM", "endpoint.value": 211}
{"compound": "CC(=O)O[C@@]12CO[C@@H]1C[C@H](O)[C@@]1(C)C(=O)[C@H](O)C3=C(C)[C@@H](OC(=O)[C@H](OC(=O)c4ccccc4)[C@@H](NC(=O)OC(C)(C)C)c4ccccc4)C[C@@](O)([C@@H](OC(=O)c4ccccc4)C12)C3(C)C (some centres unmarked)", "units.of.measure": "µM", "endpoint.value": 38.4}
